Source of measurements: patent US8912186B2

Reported AC50 by item:
biological target: PDK1 (Homo sapiens, UniProt O15530); construct: GST; test: cell-free kinase activity assay (ATPgamma[32P], T308tide substrate); format: biochemical; conditions: concentration of the compound required to activate half maximally; n.e.: no effect
Sequence (O15530 whole entry): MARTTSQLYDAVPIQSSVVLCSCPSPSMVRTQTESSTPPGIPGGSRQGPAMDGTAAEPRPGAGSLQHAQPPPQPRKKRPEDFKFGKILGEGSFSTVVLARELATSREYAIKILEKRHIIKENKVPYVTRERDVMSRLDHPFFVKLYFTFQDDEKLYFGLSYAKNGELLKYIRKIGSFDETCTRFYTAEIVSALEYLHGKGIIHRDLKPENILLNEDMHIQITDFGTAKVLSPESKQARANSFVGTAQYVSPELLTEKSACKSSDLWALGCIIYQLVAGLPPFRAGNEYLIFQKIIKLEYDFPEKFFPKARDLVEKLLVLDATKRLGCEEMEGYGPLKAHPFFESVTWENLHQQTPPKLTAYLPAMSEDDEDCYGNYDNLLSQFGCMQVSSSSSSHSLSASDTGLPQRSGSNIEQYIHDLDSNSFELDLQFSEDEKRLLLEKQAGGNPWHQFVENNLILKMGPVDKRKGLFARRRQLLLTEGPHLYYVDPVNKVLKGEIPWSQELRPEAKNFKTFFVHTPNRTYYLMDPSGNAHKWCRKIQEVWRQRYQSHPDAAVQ

Task item: Test system PDK1 (Homo sapiens, UniProt O15530); read-out AC50; what value for O=C(O)/C=C(\COc1ccc(Cl)cc1)c1ccccc1 ?
Reply: > 60 µM

Task item: Test system PDK1 (Homo sapiens, UniProt O15530); read-out AC50; what value for O=C(O)/C=C(\CCc1cccc(Cl)c1)c1ccccc1 ?
Reply: > 100 µM

Task item: Test system PDK1 (Homo sapiens, UniProt O15530); read-out AC50; what value for CCc1ccc(CC/C(=C\C(=O)O)c2ccccc2)cc1 ?
Reply: > 100 µM

Task item: Test system PDK1 (Homo sapiens, UniProt O15530); read-out AC50; what value for O=C(O)/C=C(\CCc1ccc(Br)cc1)c1ccccc1 ?
Reply: > 100 µM
